MEASURED TARGET: Insulin-like growth factor 1 receptor (Homo sapiens) (UniProt P08069)
Sequence (P08069 31-736 limits assumed): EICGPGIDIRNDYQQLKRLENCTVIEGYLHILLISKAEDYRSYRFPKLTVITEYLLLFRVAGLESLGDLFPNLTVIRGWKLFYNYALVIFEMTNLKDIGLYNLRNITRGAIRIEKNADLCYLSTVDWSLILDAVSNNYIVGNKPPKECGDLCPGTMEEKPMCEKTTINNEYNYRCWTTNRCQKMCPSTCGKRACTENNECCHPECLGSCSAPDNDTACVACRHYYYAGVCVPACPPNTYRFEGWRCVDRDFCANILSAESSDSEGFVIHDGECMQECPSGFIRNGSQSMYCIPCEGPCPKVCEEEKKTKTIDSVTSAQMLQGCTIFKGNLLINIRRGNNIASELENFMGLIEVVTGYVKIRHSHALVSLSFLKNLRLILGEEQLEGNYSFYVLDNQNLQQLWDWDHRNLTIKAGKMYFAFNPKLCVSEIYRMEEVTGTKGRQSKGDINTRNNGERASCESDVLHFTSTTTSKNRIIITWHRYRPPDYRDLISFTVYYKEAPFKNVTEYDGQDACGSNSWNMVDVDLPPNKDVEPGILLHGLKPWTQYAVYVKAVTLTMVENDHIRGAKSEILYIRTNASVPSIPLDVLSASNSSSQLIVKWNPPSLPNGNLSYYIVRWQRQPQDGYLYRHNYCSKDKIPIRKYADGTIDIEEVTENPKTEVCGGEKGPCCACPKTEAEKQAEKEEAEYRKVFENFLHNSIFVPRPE
Sequence (P08069 741-1367 limits assumed): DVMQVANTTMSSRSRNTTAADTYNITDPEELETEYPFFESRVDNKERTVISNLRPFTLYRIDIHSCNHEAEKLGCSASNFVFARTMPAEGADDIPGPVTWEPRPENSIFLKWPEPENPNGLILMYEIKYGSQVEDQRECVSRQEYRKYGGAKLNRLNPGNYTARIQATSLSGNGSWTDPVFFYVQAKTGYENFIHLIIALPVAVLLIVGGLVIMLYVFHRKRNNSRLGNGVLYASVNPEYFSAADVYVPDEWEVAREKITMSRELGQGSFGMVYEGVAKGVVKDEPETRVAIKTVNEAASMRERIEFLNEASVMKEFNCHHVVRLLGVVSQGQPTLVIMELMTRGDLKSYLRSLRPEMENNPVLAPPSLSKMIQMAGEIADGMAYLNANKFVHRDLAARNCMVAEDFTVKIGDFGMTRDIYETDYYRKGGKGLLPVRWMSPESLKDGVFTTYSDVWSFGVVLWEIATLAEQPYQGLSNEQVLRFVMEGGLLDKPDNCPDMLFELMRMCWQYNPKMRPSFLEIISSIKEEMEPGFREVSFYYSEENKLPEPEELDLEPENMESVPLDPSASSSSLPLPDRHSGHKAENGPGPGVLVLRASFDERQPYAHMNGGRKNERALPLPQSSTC
EXPERIMENTAL SETUP: at 1 µM
Form field: residual activity (one value per entry).
Please reply with the bare figure in % and do not write the unit itself.

O=C(O)c1ccc2c3c1cccc3c(=O)n1c3ccccc3nc21 ... 68
Cc1ccc(S(=O)(=O)/C=C/C#N)cc1 ... 75
CC(=O)O/N=C1\C(=C2\C(=O)Nc3cc(Br)ccc32)Nc2ccccc21 ... 142

Input: Which residual activity value is on record for Nc1ccc2ncnc(NCCc3ccc(Oc4ccccc4)cc3)c2c1 ?
Output: 138

----------
MEASURED TARGET: Serine/threonine-protein kinase 33 (Homo sapiens)
EXPERIMENTAL SETUP: at 1 µM
PROPERTY MEASURED: residual activity (%)
Please reply with the bare figure in % and do not write the unit itself.

CC(C)n1cnc2c(NCc3ccccc3)nc(NCCCO)nc21 ... 93

Input: Which residual activity value is on record for Oc1c2ccccc2c2c3c(cccc13)N=N2 ?
Output: 61

Input: Which residual activity value is on record for CO[C@@H]1[C@H](N(C)C(=O)c2ccccc2)C[C@H]2O[C@]1(C)n1c3ccccc3c3c4c(c5c6ccccc6n2c5c31)C(=O)NC4 ?
Output: 25
